- Test system: Mycobacterium tuberculosis
- EXPERIMENT NOTES: Antitubercular activity against Mycobacterium tuberculosis H37Rv ATCC 27294 after 28 days by two-fold serial dilution method in presence of efflux pump inhibitor verapamil
- Format: functional
- MEASUREMENT CONDITIONS: H37Rv ATCC 27294, 672 h
So basically: is MIC under 4 µM? Then T. Not under? Then F.

Worked examples follow.
{"columns": ["MOLECULE", "LABEL"],
 "data": [
  ["CC[C@@H](CO)NCCN[C@@H](CC)CO", "T"],
  ["NC(=O)c1c(NC(=O)c2cccc3ccccc23)sc2c1CCCCCC2", "T"],
  ["NC(=O)c1c(NC(=O)c2ccc(Oc3ccccc3)cc2)sc2c1CCCCCC2", "T"],
  ["CC(=O)N1CCc2c(sc(NC(=O)c3cccs3)c2C(N)=O)C1", "F"]
]}

QUERY: Hi there! Is MIC for CC(=O)Nc1sc2c(c1C(N)=O)CCCCCC2 below 4 µM, do you know?
RESULT: F

QUERY: Hi there! Is MIC for O=C(O)c1cn(C2CC2)c2cc(N3CCNCC3)c(F)cc2c1=O below 4 µM, do you know?
RESULT: F

QUERY: Hi there! Is MIC for CN1CCc2c(sc(NC(=O)C3CCCCC3)c2C(N)=O)C1 below 4 µM, do you know?
RESULT: T

QUERY: Hi there! Is MIC for CN1CCc2c(sc(NC(=O)C3CCCC3)c2C(N)=O)C1 below 4 µM, do you know?
RESULT: F

QUERY: Hi there! Is MIC for NC(=O)c1c(NC(=O)C2CCCCC2)sc2c1CCCCCC2 below 4 µM, do you know?
RESULT: T

These data points were gathered from ChEMBL document CHEMBL3124864.
